Test system: HT1197 cells
Experiment: Cell-based assay, anti-proliferative activity, MELK-negative control (Cell Counting Kit-8, 72 hours)
Set-up: species or system human
Conditions: Homo sapiens, HT1197, 72 h, read-out: IC50 (μM) (HTll97)
Counter-ions that a name gives are not always drawn.
Quick list: IC50 per entry.
Write down the numeric answer in µM and omit the unit.

For orientation, consider the following solved cases.
CC(=O)c1cnc2ccc(-c3cc(Cl)c(O)c(Cl)c3)nc2c1Nc1ccc(CN2CCCC2)cc1 [Example 60, dihydrochloride]	1.1
CC(=O)c1cnc2ccc(-c3cc(Cl)c(O)c(Cl)c3)nc2c1N[C@H]1CC[C@H](N(C)C)CC1 [Example 2, dihydrochloride]	0.19
CC(=O)c1cnc2ccc(-c3ccncc3)nc2c1N[C@H]1CC[C@H](CN(C)C)CC1 [Example 56, trihydrochloride]	1.7
COc1cc(-c2ccc3ncc(S(C)(=O)=O)c(Nc4ccc(OCCN(C)C)nc4)c3n2)cc(Cl)c1O [Example 26, dihydrochloride]	15
CC(=O)c1cnc2ccc(-c3cc(C)c(O)c(C)c3)nc2c1N[C@H]1CC[C@H](CN(C)C)CC1 [Example 59, dihydrochloride]	7.5

Input: Given the entry CC(=O)c1cnc2ccc(-c3cc(Cl)c(O)c(Cl)c3)nc2c1N[C@H]1CC[C@H](CN2CCNCC2)CC1 [Example 70, trihydrochloride] , report its measured IC50.
Output: 3.9

Input: Given the entry CN(C)[C@H]1CC[C@H](Nc2c(S(C)(=O)=O)cnc3ccc(-c4cc(F)c(O)c(Cl)c4)nc23)CC1 [Example 32, dihydrochloride] , report its measured IC50.
Output: 3.1

Input: Given the entry CCC(=O)c1cnc2ccc(-c3cc(Cl)c(O)c(Cl)c3)nc2c1Nc1ccc(N2CCC[C@@H](N)C2)nc1 [Example 214, trihydrochloride] , report its measured IC50.
Output: 0.34

Input: Given the entry CC(=O)c1cnc2ccc(-c3cc(F)c(O)c(Cl)c3)nc2c1N[C@H]1CC[C@H](CN2CCN(C)CC2)CC1 [Example 68, trihydrochloride] , report its measured IC50.
Output: 0.11

Input: Given the entry CC(=O)c1cnc2ccc(-c3cc(Cl)c(O)c(Cl)c3)nc2c1N[C@H]1CC[C@H](CN(C)C)CC1 [Example 6, dihydrochloride] , report its measured IC50.
Output: 0.12

Input: Given the entry CC(=O)c1cnc2ccc(-c3cc(Cl)c(O)c(Cl)c3)nc2c1Nc1ccc(N2CCC[C@H](N)C2)nc1 [Example 71, trihydrochloride] , report its measured IC50.
Output: 3.4

Input: Given the entry CC(=O)c1cnc2ccc(-c3cc(Cl)c(O)c(Cl)c3)nc2c1Nc1cnn(C2CCN(C)CC2)c1 [Example 33, dihydrochloride] , report its measured IC50.
Output: 100

Input: Given the entry CN(C)C[C@H]1CC[C@H](Nc2c(C(=O)C3CC3)cnc3ccc(-c4cc(F)c(O)c(Cl)c4)nc23)CC1 [Example 5, dihydrochloride] , report its measured IC50.
Output: 0.018

* * *

Target: MELK (Homo sapiens)
Sequence (Q14680 whole entry, looked up): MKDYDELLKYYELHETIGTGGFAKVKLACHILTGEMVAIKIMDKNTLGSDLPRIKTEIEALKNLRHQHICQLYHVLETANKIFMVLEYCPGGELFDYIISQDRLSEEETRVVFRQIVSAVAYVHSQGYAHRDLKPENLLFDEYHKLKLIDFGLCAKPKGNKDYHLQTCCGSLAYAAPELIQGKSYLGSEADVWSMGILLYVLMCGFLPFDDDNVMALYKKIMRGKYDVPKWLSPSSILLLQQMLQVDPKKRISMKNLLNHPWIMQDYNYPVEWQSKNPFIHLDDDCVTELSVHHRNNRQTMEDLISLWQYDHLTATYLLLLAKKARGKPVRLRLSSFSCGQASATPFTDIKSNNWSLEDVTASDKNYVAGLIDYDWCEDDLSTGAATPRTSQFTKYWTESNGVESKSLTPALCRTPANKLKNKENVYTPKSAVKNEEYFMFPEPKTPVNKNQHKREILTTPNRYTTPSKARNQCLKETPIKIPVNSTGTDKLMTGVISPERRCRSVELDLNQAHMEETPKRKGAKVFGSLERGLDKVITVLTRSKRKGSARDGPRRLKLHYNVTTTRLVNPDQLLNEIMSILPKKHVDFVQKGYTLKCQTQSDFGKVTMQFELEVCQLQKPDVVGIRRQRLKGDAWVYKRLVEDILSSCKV
Assay: Kinase assay (IMAP fluorescence polarization, FITC-labeled histone H3 peptide)
Assay type: biochemical
Settings: 50 micro-M ATP
Where a name gives a salt, the structure may show the parent alone.
Group membership follows IC50 per the scheme lo = under 0.001 µM, med = from 0.001 µM up to 0.004 µM, hi = 0.004 µM and over

Completed entries (count: 8):
CC(=O)c1cnc2ccc(-c3ccc(O)nc3)nc2c1N[C@H]1CC[C@H](CN(C)C)CC1 [Example 86, dihydrochloride]	hi
CC(=O)c1cnc2ccc(-c3ccc(O)c(OC(F)(F)F)c3)nc2c1N[C@H]1CC[C@H](CN(C)C)CC1 [Example 11, dihydrochloride]	med
CC(=O)c1cnc2ccc(-c3cc(Cl)c(O)c(Cl)c3)nc2c1N[C@H]1CC[C@H](N(C)C)CC1 [Example 2, dihydrochloride]	lo
CC(=O)c1cnc2ccc(-c3cn[nH]c3)nc2c1N[C@H]1CC[C@H](CN(C)C)CC1 [Example 42, trihydrochloride]	hi
CN(C)[C@H]1CC[C@H](Nc2c(S(C)(=O)=O)cnc3ccc(-c4cc(Cl)c(O)c(Cl)c4)nc23)CC1 [Example 15, dihydrochloride]	lo
CC(=O)c1cnc2ccc(-c3ccc(O)cc3)nc2c1N[C@H]1CC[C@H](CN(C)C)CC1 [Example 88, dihydrochloride]	hi
CC(=O)c1cnc2ccc(-c3cc(Cl)c(O)c(Cl)c3)nc2c1Nc1ccc(CCN(C)C)cc1 [Example 29, dihydrochloride]	med
CC(=O)c1cnc2ccc(-c3cc(F)c(O)c(Cl)c3)nc2c1N[C@H]1CC[C@@H](CN(C)C)CC1 [Example 93, dihydrochloride]	med

Turning to the following compound.
Input: Looking at COc1c(Cl)cc(-c2ccc3ncc(C(C)=O)c(N[C@H]4CC[C@H](CN(C)C)CC4)c3n2)cc1Cl [Example 85, dihydrochloride] , which class would you pick?
Output: hi

Values compiled from patent US9067937B2.
